assay-info: PK of test compounds in beagle
Type: in vivo, beagle dog
settings: dog, plasma, po, 5 mg/kg, po, 5 mg/kg, AUC in 0-24 hours, read-out: AUClast
value-type: AUC(0-t)

Q) Check the records and state AUC(0-t) for `CCOC(=O)C1=C(CN2CCO[C@H](CCC(=O)O)C2)NC(c2nccs2)=N[C@H]1c1ccc(F)cc1Br`
A) 47900 ng·h/mL

* * *

Exercise: for every item that follows, state its recorded half-life.
assay-info: PK of test compounds in beagle
Type: in vivo, beagle dog
settings: dog, plasma, po, 2.5 mg/kg
Don't forget the unit after the number, please.

Worked examples follow.
cpd-smiles	half-life
CCOC(=O)C1=C(CN2CCO[C@H](CCC(=O)O)C2)NC(c2nccs2)=N[C@H]1c1ccc(F)cc1Cl	4.62 h
COC(=O)C1=C(CN2CCO[C@H](CCC(=O)O)C2)NC(c2nccs2)=N[C@H]1c1ccc(F)cc1Br	4.92 h
CCOC(=O)C1=C(CN2CCO[C@H](CCC(=O)O)C2)NC(c2nccs2)=N[C@H]1c1ccc(Cl)cc1Cl	9.07 h
COC(=O)C1=C(CN2CCO[C@H](CCC(=O)O)C2)NC(c2nccs2)=N[C@H]1c1ccc(Cl)cc1Cl	5.29 h

Now let's try a different one.
Q) Check the records and state half-life for `COC(=O)C1=C(CN2CCO[C@H](CCC(=O)O)C2)NC(c2nccs2)=N[C@H]1c1ccc(F)cc1Cl`
A) 4.57 h

* * *

Exercise: for every item that follows, state its recorded half-life at 1 μM.
assay-info: Stability in liver microsome, mouse
Type: in vitro ADME
settings: liver microsomes; mouse liver microsome 0.1 mg/mL, compound 1 μM, NADPH 2 mM

Each of the following entries comes with a recorded value; kindly state half-life at 1 μM for each.
1. CCOC(=O)C1=C(CN2CCO[C@H](CCC(=O)O)C2)NC(c2nccs2)=N[C@H]1c1ccc(F)cc1Cl [Example 9]
2. CCOC(=O)C1=C(CN2CCO[C@H](CCC(=O)O)C2)NC(c2nccs2)=N[C@H]1c1ccc(F)cc1Br [Example 2]

A)
["19.4 min", "14.2 min"]

Each of the following entries comes with a recorded value; kindly state half-life at 1 μM for each.
1. COC(=O)C1=C(CN2CCO[C@H](CCC(=O)O)C2)NC(c2nccs2)=N[C@H]1c1ccc(F)cc1Cl [Example 10]
2. COC(=O)C1=C(CN2CCO[C@H](CCC(=O)O)C2)NC(c2nccs2)=N[C@H]1c1ccc(F)cc1Br [Example 11]
3. COC(=O)C1=C(CN2CCO[C@H](CCC(=O)O)C2)NC(c2nccs2)=N[C@H]1c1ccc(Cl)cc1Cl [Example 13]

A)
94.5 min
63.2 min
40.4 min

Q) Check the records and state half-life at 1 μM for CCOC(=O)C1=C(CN2CCO[C@H](CCC(=O)O)C2)NC(c2nccs2)=N[C@H]1c1ccc(Cl)cc1Cl [Example 12]
A) 9.03 min

* * *

assay-info: PK of test compounds in beagle
Format: in vivo, beagle dog
settings: dog, plasma, po, 2.5 mg/kg
Exercise: for every item that follows, state its recorded Cmax.
Don't forget the unit after the number, please.

Worked examples follow.
cpd-smiles	Cmax
COC(=O)C1=C(CN2CCO[C@H](CCC(=O)O)C2)NC(c2nccs2)=N[C@H]1c1ccc(Cl)cc1Cl	6410 ng/mL
COC(=O)C1=C(CN2CCO[C@H](CCC(=O)O)C2)NC(c2nccs2)=N[C@H]1c1ccc(F)cc1Br	4310 ng/mL
CCOC(=O)C1=C(CN2CCO[C@H](CCC(=O)O)C2)NC(c2nccs2)=N[C@H]1c1ccc(Cl)cc1Cl	2660 ng/mL
COC(=O)C1=C(CN2CCO[C@H](CCC(=O)O)C2)NC(c2nccs2)=N[C@H]1c1ccc(F)cc1Cl	4560 ng/mL

Q) Check the records and state Cmax for `CCOC(=O)C1=C(CN2CCO[C@H](CCC(=O)O)C2)NC(c2nccs2)=N[C@H]1c1ccc(F)cc1Cl`
A) 4360 ng/mL
